- System Name: Toll-like receptor 1/2 (Mus musculus) (UniProt Q9QUN7+Q9EPQ1)
- Assay Procedure: Agonist activity at TLR1/TLR2 in wild type C57BL/6J mouse macrophages assessed as stimulation of TNF alpha release measured for 4 hrs by ELISA based assay relative to diprovocim-1
- Assay type: cell-based
- Design: concentration or dose not given beside the values
- Condition Context: Macrophage, filed as agonist
Parameter Measured: Activity (%)
Hi! Could you send only the number? It should be in %, unit omitted.

CC(C)(C)OC(=O)C(=O)NCC(=O)OCCCCCCCCCCCCNC(=O)[C@@H]1CN(C(=O)c2ccc(C(=O)N3C[C@@H](C(=O)N[C@H]4C[C@@H]4c4ccccc4)[C@H](C(=O)N[C@H]4C[C@@H]4c4ccccc4)C3)cc2)C[C@H]1C(=O)N[C@H]1C[C@@H]1c1ccccc1
400

Now let's try a different one.
Exam item: What does the record list as Activity for `CC(C)(C)OC(=O)N[C@@H](CSCc1ccccc1)C(=O)OCCCCCCCCCCCCNC(=O)[C@@H]1CN(C(=O)c2ccc(C(=O)N3C[C@@H](C(=O)N[C@H]4C[C@@H]4c4ccccc4)[C@H](C(=O)N[C@H]4C[C@@H]4c4ccccc4)C3)cc2)C[C@H]1C(=O)N[C@H]1C[C@@H]1c1ccccc1` ?
Marked response: 200
